target: T1, human CD71 extracellular domain (human, UniProt P02786 89-760, biotinylated); assay: primary ELISA, RLU over HSA
T1 construct: also called hCD71; CD71-ECD
T1 sequence (P02786 89-760): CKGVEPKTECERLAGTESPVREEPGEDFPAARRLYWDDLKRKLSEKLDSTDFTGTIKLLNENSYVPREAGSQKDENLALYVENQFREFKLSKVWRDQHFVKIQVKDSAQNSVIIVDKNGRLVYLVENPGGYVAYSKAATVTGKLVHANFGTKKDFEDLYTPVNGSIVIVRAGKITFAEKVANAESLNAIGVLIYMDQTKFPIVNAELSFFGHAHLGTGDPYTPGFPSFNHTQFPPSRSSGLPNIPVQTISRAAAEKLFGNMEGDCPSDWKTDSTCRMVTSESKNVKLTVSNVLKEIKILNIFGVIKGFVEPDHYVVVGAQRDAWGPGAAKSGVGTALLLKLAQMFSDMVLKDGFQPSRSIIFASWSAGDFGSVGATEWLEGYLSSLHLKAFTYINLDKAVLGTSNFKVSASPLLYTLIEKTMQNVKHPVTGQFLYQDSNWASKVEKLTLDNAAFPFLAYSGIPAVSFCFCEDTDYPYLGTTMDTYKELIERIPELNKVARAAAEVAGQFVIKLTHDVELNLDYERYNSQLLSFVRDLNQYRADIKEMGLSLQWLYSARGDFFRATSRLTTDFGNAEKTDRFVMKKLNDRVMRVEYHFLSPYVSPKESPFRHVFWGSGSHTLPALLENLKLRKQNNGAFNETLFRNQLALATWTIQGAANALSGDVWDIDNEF
readout-type: hCD71:HSA

CD71-binding FN3 domain of SEQ ID NO: 542 (designed binder) MLPAPKNLVVSRVTEDSARLSWTAPDAAFDSFFIGYLEPQPPGEAIELFVPGSERSYDLTGLKPGTEYNVTIQGVKGGFPSMPLSAIFTT :: 169
CD71-binding FN3 domain of SEQ ID NO: 528 (designed binder) MLPAPKNLVVSRVTEDSARLSWTAPDAAFDSFFIGYLEPQPPGEAITLLVPGSERSYDLTGLKPGTEYNVTIQGVKGGFPSIPLIAIFTT :: 169
